Biological target: T1, Soluble CD28-Ig (human, UniProt P10747 19-152, biotin-conjugated (NHS-biotin) in the labelled-ligand FACS assays)
T1 construct: extracellular domain; Bought from R&D Systems; also called sCD28-Ig; CD28-Ig Fc; not shown: Fc portion of human IgG1
Assay: two-colour FACS profile on transfected cells; score of preference for CD28-Ig over CTLA-4-Ig vs WT hB7-1
readout.kind: Binding Score
Response field accepts a number only; no unit should be typed.

response.value for Round 2 CD28A8-4 (ligand) ITPKSVTKRVKETVMLSCDYNTSTEELTSLRIYWQKDSKMVLAILPGKVQVWPEYKNRTITDMNDNPRIVILALRLSDSGTYTCVIQKPVLKGAYKLEHLTSVRLMIRADFPVPTINDLGNPSPNIRRLICSTSGGFPRPHLYWLENGEELNATNTTVSQDPGTELYMISSELDFNVTNNHSIVCLIKYGELSVSQIFPWSKPKQEPPIDQLPFWVIIPVSGALVLTAVVLYCLACRHVARWKRTRRNEETVGTERLSPIYLGSAQSSG (field: Binding Score) = 1
